The origin of these recorded values is patent EP0062704A1.

Listing: Zahl toter Larven Stunden nach Behandlung of selected molecules
Tested on: Larven III der Magenbremse, Gasterophilus intestinalis
Test: In vitro test on larvae III of Gasterophilus intestinalis (5 min immersion, mortality count)
Conditions: 120 h after treatment; 10 larvae immersed 5 min in 0,1 % active dilution; kept at about 37°C
ENDPOINT: Zahl toter Larven Stunden nach Behandlung

MOLECULE	MEASURED NUMBER
CC1(C)[C@H](C(=O)O[C@H](C#N)c2cccc(Oc3ccccc3)c2)[C@@H]1C=C(Cl)Cl [Verbindung B]	10
CC1(C)[C@H](C(=O)O[C@H](C#N)c2cccc(Oc3ccccc3)c2)[C@@H]1C=C(Br)Br [Verbindung A]	10
CC1(C)[C@H](C(=O)O[C@H](C#N)c2cccc(Oc3ccccc3)c2)[C@@H]1C(Br)C(Cl)(Cl)Br (stereo partly shown) [Verbindung C]	10
